read-out: Glutathione S-Transferase (GSTA2), GSTA2 (gene 2939); test: LTEA_HepaRG_GSTA2: Life Technologies and Expression Analysis (LTEA) Assay for Glutathione S-Transferase (GSTA2) using HepaRG (AID 2283497); conditions: mRNA level, 48 h; actives raise or lower the signal
Calls of active or inactive are those of the source. The calls were made as follows: active = hit-call score of the fitted dose curve at least 0.9, where 1 is the maximum; inactive = score below 0.9.
Bench note: report the call from 1 (yes) = active, 0 (no) = inactive

// known answers, use as guide
COc1cnc(OC)n2nc(NS(=O)(=O)c3c(OCC(F)F)cccc3C(F)(F)F)nc12: 0 (no)
Fc1ccc(Oc2ccnc3cc(Cl)cc(Cl)c23)cc1: 1 (yes)

Kindly consider the entry below.
Give the logged outcome of this assay for the following molecule: `CN(C)C(=S)SSC(=S)N(C)C`
0 (no)

###

test: APR_HepG2_CellLoss_24hr: Apredica 24-hour HepG2 Assay for Cell Loss (AID 2282908); details: high-content imaging
Activity calls are given as the source filed them. The calls were made as follows: active = hit-call score of the fitted dose curve at least 0.9, where 1 is the maximum; inactive = score below 0.9.
Bench note: report the call from active, inactive

O=C(Nc1ccccc1)Nc1ccnc(Cl)c1: active
C#CCOS(=O)OC1CCCCC1Oc1ccc(C(C)(C)C)cc1 (centres undefined): active
CCOP(=S)(OCC)SCn1c(=O)oc2cc(Cl)ccc21: inactive
CCCCOC(=O)c1ccccc1C(=O)OCCCC: inactive
COc1ccc(C(c2ccc(OC)cc2)C(Cl)(Cl)Cl)cc1: active
C=CCC1=C(C)C(OC(=O)C2C(C=C(C)C)C2(C)C)CC1=O (centres undefined): active
COC(=O)C(C)Oc1ccc(Oc2ccc(Cl)cc2Cl)cc1 (centres undefined): inactive
C=CC1(C)OC(=O)N(c2cc(Cl)cc(Cl)c2)C1=O (centres undefined): inactive

Kindly consider the entry below.
Give the logged outcome of this assay for the following compound: `Fc1ccc(Oc2ccnc3cc(Cl)cc(Cl)c23)cc1`
active

###

assay: Tanguay_ZF_120hpf_PE_legacy: (Legacy) Oregon State University Tanguay Lab 120 Hour Post-fertilization zebrafish Assay for Pericardial Edema (AID 2283640);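 as to AC50: potency for increased incidence of pericardial edema versus DMSO baseline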
Results filed as inconclusive are left out. Calls of active or inactive are those of the source. The calls were made as follows: active = hit-call score of the fitted dose curve at least 0.9, where 1 is the maximum; inconclusive = response in the unintended direction; inactive = score below 0.9.
assay.endpoint: AC50

Reference set (6 entries):
CCCCNC(=O)n1c(NC(=O)OC)nc2ccccc21: inactive
CC(Oc1ccc(Cl)cc1Cl)C(=O)O (configuration not stated): inactive
COC(=O)N(OC)c1ccccc1COc1ccn(-c2ccc(Cl)cc2)n1: inactive
CNC(=O)ON=CC(C)(C)SC: 2.81 µM (active)
CCc1nn(C)c(C(=O)NCc2ccc(C(C)(C)C)cc2)c1Cl: 5.67 µM (active)
CS/C(C)=N/OC(=O)N(C)SN(C)C(=O)O/N=C(\C)SC: inactive

Then there is this molecule:
# input molecule: `CNC(=S)S` ; wanted: its AC50
inactive

###

assay: BSK_3C_VCAM1: BioMAP Diversity Plus: 3C Assay for Vascular cell adhesion molecule 1 (VCAM1) Biomarker Activity (AID 2282999); settings: BioMAP 3C HUVEC, VCAM1 ELISA, cytokine-stimulated; actives raise or lower the signal
Activity calls are given as the source filed them. Rule for the calls: active = hit-call score of the fitted dose curve at least 0.9, where 1 is the maximum; inactive = score below 0.9.
Bench note: report the call from active, inactive

Give the logged outcome of this assay for the following molecule: `O=C(O)COc1nc(Cl)c(Cl)cc1Cl`
inactive

Could you do the same for `COc1nc(C)nc(NC(=O)NS(=O)(=O)c2ccccc2Cl)n1` , please?
inactive

Could you do the same for C#CCOS(=O)OC1CCCCC1Oc1ccc(C(C)(C)C)cc1 (configuration not stated) , please?
active

Could you do the same for COC(=O)C(C)Oc1ccc(Oc2ccc(Cl)cc2Cl)cc1 (configuration not stated) , please?
inactive

Could you do the same for `CC(C)Oc1cc(-n2nc(C(C)(C)C)oc2=O)c(Cl)cc1Cl` , please?
active

Could you do the same for CCOC(=O)CC(SP(=S)(OC)OC)C(=O)OCC (configuration not stated) , please?
inactive

Could you do the same for `Oc1ccccc1-c1ccccc1` , please?
inactive
